The following binders are listed with their measured fold activation, T-cell proliferation, plate-bound Ab 10.6 nM, donor 7 values.
# TARGET_DESC: T1, human GITR (amino acids M1-V241, NCBI Accession #NP_004186.1) expressed on cells (human, UniProt Q9Y5U5 26-241)
# T1 sequence: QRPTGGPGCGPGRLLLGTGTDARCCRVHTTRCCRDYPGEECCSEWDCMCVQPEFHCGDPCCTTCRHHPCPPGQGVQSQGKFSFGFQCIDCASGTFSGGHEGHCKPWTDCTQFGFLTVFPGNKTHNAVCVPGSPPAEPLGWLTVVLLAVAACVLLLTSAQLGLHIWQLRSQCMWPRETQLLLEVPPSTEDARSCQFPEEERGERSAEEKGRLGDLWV
# MEASUREMENT_NOTES: cell-based or functional assay
Give your result in fold as a bare value.

Record excerpt, results attached:
fold activation, T-cell proliferation, plate-bound Ab 10.6 nM, donor 7 reported for this binder H4H14521P (antibody, human IgG4, V domains shown, human IgG4 (H4H)) VH: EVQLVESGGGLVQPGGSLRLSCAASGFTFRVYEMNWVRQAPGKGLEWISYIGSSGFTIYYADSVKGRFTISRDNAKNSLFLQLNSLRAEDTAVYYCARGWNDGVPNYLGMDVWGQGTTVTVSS VL: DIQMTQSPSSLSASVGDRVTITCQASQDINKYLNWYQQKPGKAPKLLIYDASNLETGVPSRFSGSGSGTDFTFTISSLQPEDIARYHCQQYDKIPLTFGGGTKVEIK : 3

Please fill in: fold activation, T-cell proliferation, plate-bound Ab 10.6 nM, donor 7 reported for H4H14508P (antibody, human IgG4, V domains shown, human IgG4 (H4H)) VH: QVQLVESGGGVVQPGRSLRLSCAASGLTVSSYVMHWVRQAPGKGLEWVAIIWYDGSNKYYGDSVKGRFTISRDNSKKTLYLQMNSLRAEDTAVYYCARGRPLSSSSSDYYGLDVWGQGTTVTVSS VL: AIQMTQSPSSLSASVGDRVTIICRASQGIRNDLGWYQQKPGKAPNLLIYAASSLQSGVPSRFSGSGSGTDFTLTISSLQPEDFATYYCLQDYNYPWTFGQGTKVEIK = 3

The binder listed as H4H14470P (antibody, human IgG4, V domains shown, human IgG4 (H4H)) VH: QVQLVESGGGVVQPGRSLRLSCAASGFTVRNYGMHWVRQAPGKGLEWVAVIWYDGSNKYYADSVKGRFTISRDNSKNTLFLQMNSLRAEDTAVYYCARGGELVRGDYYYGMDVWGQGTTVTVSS VL: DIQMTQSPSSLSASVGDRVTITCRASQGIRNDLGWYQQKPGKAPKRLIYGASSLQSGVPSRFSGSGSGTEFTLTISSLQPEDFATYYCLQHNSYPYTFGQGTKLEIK has a reported fold activation, T-cell proliferation, plate-bound Ab 10.6 nM, donor 7 of 4

Next:
Please fill in: fold activation, T-cell proliferation, plate-bound Ab 10.6 nM, donor 7 reported for H4H14469P (antibody, human IgG4, V domains shown, human IgG4 (H4H)) VH: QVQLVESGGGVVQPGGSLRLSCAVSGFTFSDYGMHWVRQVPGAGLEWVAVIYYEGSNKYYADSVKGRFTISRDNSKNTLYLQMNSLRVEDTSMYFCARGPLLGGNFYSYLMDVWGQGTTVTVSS VL: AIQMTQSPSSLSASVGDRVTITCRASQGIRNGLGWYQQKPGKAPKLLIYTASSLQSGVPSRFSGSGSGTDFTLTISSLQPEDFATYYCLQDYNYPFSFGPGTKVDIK = 11

Lab note: H4H14475P (antibody, human IgG4, V domains shown, human IgG4 (H4H)) VH: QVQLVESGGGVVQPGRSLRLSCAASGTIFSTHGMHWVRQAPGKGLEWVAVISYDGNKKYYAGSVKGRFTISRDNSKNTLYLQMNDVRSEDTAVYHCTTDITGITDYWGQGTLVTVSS VL: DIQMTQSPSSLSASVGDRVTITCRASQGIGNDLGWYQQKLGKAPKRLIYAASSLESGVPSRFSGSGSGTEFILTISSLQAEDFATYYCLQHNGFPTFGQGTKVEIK gave fold activation, T-cell proliferation, plate-bound Ab 10.6 nM, donor 7 of 1
